Source listed as PubChem BioAssay (NCATS).

Tested on: Zika virus NS2B-NS3 protease (unlinked)
assay.text: Optimization of GU AMC qHTS for Zika virus inhibitors: Unlinked NS2B-NS3 protease assay (AID 1347151); also: nearly all actives have a fitted effect of over 80% in size
condition.info: recombinant ZIKV NS2B-NS3 protease, fluorogenic AMC substrate; series mostly up to 52.5 µM
Results filed as inconclusive are left out. Activity calls are given as the source filed them. Calls follow the shape of the dose curve; as a rule, active = well fitted inhibition curve with a large enough effect; inconclusive = small, poorly fitted or top-dose-only effect; inactive = no such curve, though single readings can be large or run the other way.
reported.property: outcome

Study these solved cases before continuing.
>  <molecule>
O=[N+]([O-])c1cccc2c(Br)[nH]nc12

>  <outcome>
inactive

$$$$
>  <molecule>
O=C(O)/C=C/c1cnc[nH]1

>  <outcome>
inactive

$$$$
>  <molecule>
CN(C)C(=O)/N=N/C(=O)N(C)C

>  <outcome>
inactive

$$$$
>  <molecule>
Oc1ccc(Cn2cc[nH]c2=S)cc1

>  <outcome>
inactive

$$$$
>  <molecule>
C=CC1(C)CC(=O)C2(O)C(C)(O1)C(OC(C)=O)C(O)C1C(C)(C)CCC(O)C12C (stereo not drawn)

>  <outcome>
inactive

$$$$
>  <molecule>
CCCCCCCCCC(=O)NC(CN1CCOCC1)[C@H](O)c1ccccc1 (stereo partly drawn)

>  <outcome>
inactive

$$$$
>  <molecule>
O=C(O)c1cc(=O)cc(C(=O)O)[nH]1

>  <outcome>
inactive

$$$$

Looking up O=C(O)C1CCCNC1 (stereo not drawn) , I see its outcome listed as inactive
